target-desc: Microsomal triglyceride transfer protein (MTP) from human small intestine microsome (Homo sapiens)
Construct: Human small intestine microsome was dialyzed against 10 mM phosphate buffer; tissue Tissue Transforming Technologies, Inc; host or cells: human small intestine microsome
Sequence (P55157 19-894): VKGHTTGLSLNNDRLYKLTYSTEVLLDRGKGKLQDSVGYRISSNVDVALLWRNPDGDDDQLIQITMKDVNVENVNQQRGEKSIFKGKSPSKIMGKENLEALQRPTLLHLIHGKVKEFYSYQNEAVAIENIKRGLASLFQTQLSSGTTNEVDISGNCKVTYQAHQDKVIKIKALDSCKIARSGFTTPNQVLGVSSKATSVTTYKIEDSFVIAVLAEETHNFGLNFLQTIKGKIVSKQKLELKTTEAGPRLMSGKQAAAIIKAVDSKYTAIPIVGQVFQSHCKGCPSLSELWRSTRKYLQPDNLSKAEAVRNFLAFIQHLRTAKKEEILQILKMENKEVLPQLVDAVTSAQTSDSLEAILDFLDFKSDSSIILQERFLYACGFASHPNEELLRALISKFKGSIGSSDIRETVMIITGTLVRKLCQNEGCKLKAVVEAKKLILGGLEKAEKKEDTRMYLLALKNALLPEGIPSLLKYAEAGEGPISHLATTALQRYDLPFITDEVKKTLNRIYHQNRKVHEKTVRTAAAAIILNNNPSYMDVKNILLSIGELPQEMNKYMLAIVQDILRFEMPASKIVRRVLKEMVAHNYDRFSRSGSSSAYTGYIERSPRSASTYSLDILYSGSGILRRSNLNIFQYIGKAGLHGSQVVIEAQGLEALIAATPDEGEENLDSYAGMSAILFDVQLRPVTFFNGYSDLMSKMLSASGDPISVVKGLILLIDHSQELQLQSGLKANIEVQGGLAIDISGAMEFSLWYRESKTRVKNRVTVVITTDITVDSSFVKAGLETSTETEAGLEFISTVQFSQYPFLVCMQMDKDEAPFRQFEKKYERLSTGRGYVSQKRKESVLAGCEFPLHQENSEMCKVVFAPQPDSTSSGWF
Sequence (P07237 18-508 partner): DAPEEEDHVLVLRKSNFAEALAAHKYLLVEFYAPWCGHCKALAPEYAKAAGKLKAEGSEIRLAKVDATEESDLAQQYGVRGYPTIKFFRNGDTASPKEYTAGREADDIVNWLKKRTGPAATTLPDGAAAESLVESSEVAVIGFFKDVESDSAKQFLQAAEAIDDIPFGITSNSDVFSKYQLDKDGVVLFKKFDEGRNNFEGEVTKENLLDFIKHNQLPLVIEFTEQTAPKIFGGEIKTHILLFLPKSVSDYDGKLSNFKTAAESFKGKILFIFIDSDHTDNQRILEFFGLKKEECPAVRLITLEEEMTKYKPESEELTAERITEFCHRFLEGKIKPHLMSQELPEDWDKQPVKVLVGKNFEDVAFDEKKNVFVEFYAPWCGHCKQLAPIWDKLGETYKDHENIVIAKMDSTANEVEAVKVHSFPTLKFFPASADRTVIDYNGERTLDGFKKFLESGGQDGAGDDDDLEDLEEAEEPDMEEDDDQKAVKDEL
assay-protocol: Inhibition test of interliposomal triglyceride (TG) transfer activity by MTP
Assay type: biochemical
particulars: purified MTP from human small intestine microsome, 37° C., 1.5 hours
observation-type: IC50

[[record]]
smiles_code = "COC(=O)COC(=O)c1ccc(OC(=O)CCCc2ccc(NC(=O)c3ccccc3-c3ccc(C(F)(F)F)cc3)c(C(=O)N(C)C)c2)cc1"
observation_type = "IC50"
value_observed = "< 10 nM"

[[record]]
smiles_code = "COC(=O)c1cc(OC)c(OC(=O)CCCc2ccc(NC(=O)c3ccc(C)nc3-c3ccc(C(F)(F)F)cc3)c(C(=O)N(C)C)c2)c(C(F)(F)F)c1"
observation_type = "IC50"
value_observed = "< 10 nM"

[[record]]
smiles_code = "CC(C)OC(=O)COC(=O)c1ccc(OC(=O)CCCc2ccc(NC(=O)c3ccccc3-c3ccc(C(F)(F)F)cc3)c(C(=O)N(C)C)c2)cc1"
observation_type = "IC50"
value_observed = "< 10 nM"

[[record]]
smiles_code = "COC(=O)c1ccc(OC(=O)CCCc2ccc(NC(=O)c3ccccc3-c3ccc(C(F)(F)F)cc3)c(C(=O)N3CCOCC3)c2)cc1"
observation_type = "IC50"
value_observed = "10 to 100 nM"

[[record]]
smiles_code = "COC(=O)c1ccc(OC(=O)CCCc2ccc(NC(=O)c3ccccc3-c3ccc(C(F)(F)F)cc3)c(C(=O)N(C)C)c2)c(F)c1"
observation_type = "IC50"
value_observed = "< 10 nM"

[[record]]
smiles_code = "COC(=O)c1ccc(OC(=O)CCCc2ccc(NC(=O)c3cccnc3-c3ccc(C(F)(F)F)cc3)c(C(=O)N(C)C)c2)cc1"
observation_type = "IC50"
value_observed = "< 10 nM"

[[record]]
smiles_code = "COC(=O)c1ccc(OC(=O)CCCc2ccc(NC(=O)c3ccccc3-c3ccc(C(F)(F)F)cc3)c(C(=O)N(C)C)c2)cc1C(F)(F)F"
observation_type = "IC50"
value_observed = "10 to 100 nM"

[[record]]
smiles_code = "CCc1cc(C(=O)OC)cc(Cl)c1OC(=O)CCCc1ccc(NC(=O)c2ccc(C)nc2-c2ccc(C(F)(F)F)cc2)c(C(=O)N(C)C)c1"
observation_type = "IC50"
value_observed = "< 10 nM"

[[record]]
smiles_code = "CCOC(=O)c1ccc(OC(=O)CCCc2ccc(NC(=O)c3ccccc3-c3ccc(C(F)(F)F)cc3)c(C(=O)N3CCCC3)c2)c(F)c1"
observation_type = "IC50"
value_observed = "< 10 nM"

[[record]]
smiles_code = "COC(=O)c1ccc(OC(=O)CCCc2ccc(NC(=O)c3ccccc3-c3ccc(C(F)(F)F)cc3)c(C(=O)N(C)C)c2)cc1"
observation_type = "IC50"
value_observed = "< 10 nM"

[[record]]
smiles_code = "CN(C)C(=O)c1cc(CCCC(=O)Oc2ccc(C(=O)OCCN3CCCC3=O)cc2)ccc1NC(=O)c1ccccc1-c1ccc(C(F)(F)F)cc1"
observation_type = "IC50"
value_observed = "< 10 nM"


====

target-desc: Microsomal triglyceride transfer protein (MTP) from human small intestine microsome (Homo sapiens)
Construct: Human small intestine microsome was dialyzed against 10 mM phosphate buffer; tissue Tissue Transforming Technologies, Inc; host or cells: human small intestine microsome
assay-protocol: Inhibition test of interliposomal triglyceride (TG) transfer activity by MTP
Type: biochemical
particulars: purified MTP from human small intestine microsome, 37° C., 1.5 hours
observation-type: IC50

[[record]]
compound = "CN(C)C(=O)COC(=O)c1ccc(OC(=O)CCCc2ccc(NC(=O)c3ccccc3-c3ccc(C(F)(F)F)cc3)c(C(=O)N(C)C)c2)cc1 [Compound 1-85]"
value_observed = "< 10 nM"

[[record]]
compound = "CN(C)C(=O)c1cc(CCCC(=O)Oc2ccc(C(=O)OCc3ccc(C(=O)OC(C)(C)C)cc3)cc2)ccc1NC(=O)c1ccccc1-c1ccc(C(F)(F)F)cc1 [Compound 1-103]"
value_observed = "< 10 nM"

[[record]]
compound = "COC(=O)c1ccc(OC(=O)C2CCN(c3ccc(NC(=O)c4ccccc4-c4ccc(C(F)(F)F)cc4)c(C(=O)N(C)C)c3)CC2)cc1 [Compound 3-1]"
value_observed = "10 to 100 nM"

[[record]]
compound = "CN(C)C(=O)c1cc(CCCC(=O)Oc2ccc(C(=O)OCC(=O)OCc3ccccc3)cc2)ccc1NC(=O)c1ccccc1-c1ccc(C(F)(F)F)cc1 [Compound 1-78]"
value_observed = "< 10 nM"

[[record]]
compound = "COC(=O)c1ccc(OC(=O)CCCc2ccc(NC(=O)c3ccccc3-c3ccc(C(F)(F)F)cc3)c(C(=O)N(C)C)c2)c(Cl)c1 [Compound 1-11]"
value_observed = "< 10 nM"

[[record]]
compound = "CN(C)C(=O)c1cc(CCCC(=O)Oc2ccc(C(=O)OC3CCCc4ccccc43)cc2)ccc1NC(=O)c1ccccc1-c1ccc(C(F)(F)F)cc1 (stereo not drawn) [Compound 1-108]"
value_observed = "< 10 nM"

[[record]]
compound = "CC(C)OC(=O)c1ccc(OC(=O)CCCc2ccc(NC(=O)c3ccccc3-c3ccc(C(F)(F)F)cc3)c(C(=O)N(C)C)c2)cc1 [Compound 1-7]"
value_observed = "< 10 nM"

[[record]]
compound = "COC(=O)c1ccc(OC(=O)CCCc2ccc(NC(=O)c3ccccc3-c3ccc(C(F)(F)F)cc3)c(C(=O)N(C)C)c2)cc1OC [Compound 1-17]"
value_observed = "10 to 100 nM"

[[record]]
compound = "CCOC(=O)c1cc(OC)c(OC(=O)CCCc2ccc(NC(=O)c3ccc(C)nc3-c3ccc(C(F)(F)F)cc3)c(C(=O)N(C)C)c2)c(OC)c1 [Compound 1-43]"
value_observed = "< 10 nM"

[[record]]
compound = "CC(=O)NCCOC(=O)c1ccc(OC(=O)CCCc2ccc(NC(=O)c3ccccc3-c3ccc(C(F)(F)F)cc3)c(C(=O)N(C)C)c2)cc1 [Compound 1-77]"
value_observed = "< 10 nM"

[[record]]
compound = "COC(=O)c1cc(C)c(OC(=O)CCCc2ccc(NC(=O)c3ccc(C)nc3-c3ccc(C(F)(F)F)cc3)c(C(=O)N(C)C)c2)c(C)c1 [Compound 1-65]"
value_observed = "< 10 nM"

[[record]]
compound = "COC(=O)c1ccc(OC(=O)CCCc2ccc(NC(=O)c3ccccc3-c3ccc(C(F)(F)F)cn3)c(C(=O)N(C)C)c2)cc1 [Compound 1-19]"
value_observed = "10 to 100 nM"

[[record]]
compound = "CCOc1cc(C(=O)OC)cc(OC)c1OC(=O)CCCc1ccc(NC(=O)c2ccc(C)nc2-c2ccc(C(F)(F)F)cc2)c(C(=O)N(C)C)c1 [Compound 1-49]"
value_observed = "< 10 nM"

[[record]]
compound = "COC(=O)c1cc(C)c(OC(=O)CCCc2ccc(NC(=O)c3ccc(C)nc3-c3ccc(C(F)(F)F)cc3)c(C(=O)N(C)C)c2)c(C(F)(F)F)c1 [Compound 1-45]"
value_observed = "< 10 nM"

[[record]]
compound = "CN(C)C(=O)c1cc(CC(=O)Oc2ccc(F)cc2)ccc1NC(=O)c1ccccc1-c1ccc(C(F)(F)F)cc1 [Compound 1-4]"
value_observed = "100 to 1000 nM"

[[record]]
compound = "CC(C)OC(=O)c1ccc(OC(=O)CCCc2ccc(NC(=O)c3cccnc3-c3ccc(C(F)(F)F)cc3)c(C(=O)N(C)C)c2)cc1 [Compound 1-31]"
value_observed = "10 to 100 nM"

[[record]]
compound = "CN(C)C(=O)Cn1nnc(-c2ccc(OC(=O)CCCc3ccc(NC(=O)c4ccccc4-c4ccc(C(F)(F)F)cc4)c(C(=O)N(C)C)c3)cc2)n1 [Compound 1-105]"
value_observed = "< 10 nM"

[[record]]
compound = "COC(=O)c1ccc(OC(=O)CCCc2ccc(NC(=O)c3ccncc3-c3ccc(C(F)(F)F)cc3)c(C(=O)N(C)C)c2)cc1 [Compound 1-30]"
value_observed = "10 to 100 nM"

[[record]]
compound = "CCOC(=O)c1cc(C)c(OC(=O)CCCc2ccc(NC(=O)c3ccc(C)nc3-c3ccc(C(F)(F)F)cc3)c(C(=O)N(C)C)c2)c(C(=O)OC)c1 [Compound 1-52]"
value_observed = "< 10 nM"

[[record]]
compound = "COc1cc(C(=O)OCCNC(C)=O)cc(Cl)c1OC(=O)CCCc1ccc(NC(=O)c2ccc(C)nc2-c2ccc(C(F)(F)F)cc2)c(C(=O)N(C)C)c1 [Compound 1-114]"
value_observed = "< 10 nM"

[[record]]
compound = "COC(=O)c1ccc(-c2nc(C)ccc2C(=O)Nc2ccc(CCCC(=O)Oc3c(C)cc(C(=O)OC)cc3Cl)cc2C(=O)N(C)C)cc1 [Compound 4-1]"
value_observed = "< 10 nM"

[[record]]
compound = "COC(=O)c1ccc(OC(=O)CCCc2ccc(NC(=O)c3ccccc3-c3ccc(C(F)(F)F)cc3)c(C(=O)N(C)C)c2)c(C(F)(F)F)c1 [Compound 1-20]"
value_observed = "10 to 100 nM"

[[record]]
compound = "COC(=O)c1ccc(OC(=O)CCc2ccc(NC(=O)c3ccccc3-c3ccc(C(F)(F)F)cc3)c(C(=O)N(C)C)c2)cc1 [Compound 1-27]"
value_observed = "10 to 100 nM"

[[record]]
compound = "COC(=O)c1cc(C)c(OC(=O)CCCc2ccc(NC(=O)c3ccccc3-c3ccc(C(F)(F)F)cc3)c(C(=O)N(C)C)c2)c(C)c1 [Compound 1-64]"
value_observed = "< 10 nM"

